- System: HOP-62 (Lung Adenocarcinoma)
- ASSAY PROCEDURE: combination Emax (second highest fraction inhibited in the dose matrix, 72 h); higher = more inhibition; extreme values may be limits of the assay
Measured combination Emax accompanies every entry in the list below.
RESULT TYPE: combination Emax

COMPOUND	RESULT TYPE	RECORDED MEASUREMENT
Cc1cc2ncnn2cc1Nc1ncc2c(n1)n(C1CCOCC1)c(=O)n2C [AZD7648] + C[C@@H]1COCCN1C2=NC(=NC(=C2)C3(CC3)[S@](=N)(=O)C)C4=C5C=CNC5=NC=C4 [AZD6738] (first compound max 10 µM, 7x7, partner max 10 µM)	combination Emax	0.435
Cc1c2c(nn1C)CSCc1cc(n(C)n1)CSc1cc(c3ccccc3c1)OCCCc1c(C(=O)O)n(C)c3c-2c(Cl)ccc13 [AZD5991] + C1CN(CCC1(C(=O)N[C@@H](CCO)C2=CC=C(C=C2)Cl)N)C3=NC=NC4=C3C=CN4 [Capivasertib] (first compound max 1 µM, 7x7, partner max 3 µM)	combination Emax	0.257
CC1(C)CCC(CN2CCN(c3ccc(C(=O)NS(=O)(=O)c4ccc(NCC5CCOCC5)c([N+](=O)[O-])c4)c(Oc4cnc5[nH]ccc5c4)c3)CC2)=C(c2ccc(Cl)cc2)C1 [Venetoclax] + Cc1cc2ncnn2cc1Nc1ncc2c(n1)n(C1CCOCC1)c(=O)n2C [AZD7648] (first compound max 1 µM, 7x7, partner max 10 µM)	combination Emax	0.172

Value source: the supplement of paper PMC11061612
